- assay-target: 72 kDa type IV collagenase (Homo sapiens)
- Sequence (P08253 whole entry): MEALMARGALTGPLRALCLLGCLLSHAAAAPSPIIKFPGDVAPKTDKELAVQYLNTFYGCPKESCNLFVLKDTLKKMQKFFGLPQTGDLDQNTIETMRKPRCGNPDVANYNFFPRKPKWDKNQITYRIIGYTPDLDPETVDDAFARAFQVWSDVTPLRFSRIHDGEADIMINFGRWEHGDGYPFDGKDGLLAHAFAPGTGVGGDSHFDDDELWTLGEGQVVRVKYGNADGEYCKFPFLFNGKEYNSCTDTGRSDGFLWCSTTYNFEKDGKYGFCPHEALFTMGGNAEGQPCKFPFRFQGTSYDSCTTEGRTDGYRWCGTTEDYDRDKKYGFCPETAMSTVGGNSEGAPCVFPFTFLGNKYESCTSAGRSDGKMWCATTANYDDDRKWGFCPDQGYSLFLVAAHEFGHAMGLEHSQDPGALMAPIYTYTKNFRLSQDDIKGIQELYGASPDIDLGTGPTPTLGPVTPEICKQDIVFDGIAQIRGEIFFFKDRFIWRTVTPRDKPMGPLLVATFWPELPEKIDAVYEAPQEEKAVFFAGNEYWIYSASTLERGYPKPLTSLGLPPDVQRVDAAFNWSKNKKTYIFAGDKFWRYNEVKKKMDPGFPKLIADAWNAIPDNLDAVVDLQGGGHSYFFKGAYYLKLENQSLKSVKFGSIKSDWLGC
- protocol-details: Dose Response validation of uHTS RPN11 inhibitor hits using a MMP-2 Fluorescence assay.
- Format: functional
The source made the active and inactive calls.
A correct response names exactly one class from active, inactive

For `O=C(Nc1ccc(F)cc1)Nc1nnc(-c2ccncc2)s1` , what call appears in the results of this test?
inactive

Recorded test outcome, item `CC(=O)C1=C(O)C(=CC=Cc2ccccc2)OC1=O`
inactive

###

- assay-target: UniProt G5EF15
- Sequence (G5EF15 whole entry, the tested form may be a part): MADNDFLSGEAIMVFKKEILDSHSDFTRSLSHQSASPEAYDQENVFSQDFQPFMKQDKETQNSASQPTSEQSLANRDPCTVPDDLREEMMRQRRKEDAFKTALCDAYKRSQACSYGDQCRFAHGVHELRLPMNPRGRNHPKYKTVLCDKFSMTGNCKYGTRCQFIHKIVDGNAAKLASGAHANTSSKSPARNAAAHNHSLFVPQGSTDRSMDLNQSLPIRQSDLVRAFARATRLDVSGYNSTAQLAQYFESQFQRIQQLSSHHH
- protocol-details: disruptors of C. elegans POS-1 RNA interaction – biochemical, fluorescence polarization, dose response (AID 1964);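 further: purified POS-1 fused to maltose binding protein made in E. coli; potency of compounds blocking POS-1 binding to fluorescent RNA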
The source made the active and inactive calls.
metric: EC50

[
  {
    "compound": "COc1cc(C2C(C#N)=C(N)OC3=C2C(=O)CC(C)(C)C3)cc([N+](=O)[O-])c1O (stereo unspecified)",
    "assay-target": "UniProt G5EF15",
    "assay-value": "> 300 µM (not active)"
  },
  {
    "compound": "COc1ccc(N2C(=O)NC(=O)/C(=C\\c3c[nH]c4ccc(Br)cc34)C2=O)c(OC)c1",
    "assay-target": "UniProt G5EF15",
    "assay-value": "> 300 µM (inconclusive)"
  },
  {
    "compound": "O=C(O)c1cccc(-n2cccc2/C=C2/NC(=O)N(Cc3ccccc3F)C2=O)c1",
    "assay-target": "UniProt G5EF15",
    "assay-value": "> 300 µM (not active)"
  },
  {
    "compound": "CCOc1ccccc1N1CCN(C(=O)CNC(=O)c2ccccc2F)CC1",
    "assay-target": "UniProt G5EF15",
    "assay-value": "> 300 µM (not active)"
  },
  {
    "compound": "Cc1ccc2ccc(C3C(=O)c4ccccc4C3=O)nc2c1",
    "assay-target": "UniProt G5EF15",
    "assay-value": "> 300 µM (not active)"
  },
  {
    "compound": "O=c1[nH]c(CSc2ncccn2)nc2c1cnn2-c1ccccc1",
    "assay-target": "UniProt G5EF15",
    "assay-value": "166 µM (inconclusive)"
  }
]

Using the record for `COc1ccc(OC)c(C2=C/C(=C/c3ccccn3)C(=O)O2)c1` , state its measured EC50.
> 300 µM (not active)

Assign EC50 to the following record: `COc1ccc(Nc2nc(-c3cccnc3)nc3ccccc23)cn1`
12.4 µM (active)

Fill in reported EC50 for this entry: Oc1ccc(C2C[C@H]3CC[C@@H]2C3)cc1O (stereo partly specified)
> 300 µM (not active)

Provide only the value of recorded EC50 for `Cc1cc(C=C2C(=O)c3ccccc3C2=O)c(C)n1-c1ccc(C(=O)O)cc1`
> 300 µM (not active)

Determine from records and report EC50 for `Nc1cccc2c1C(=O)N(Cc1nnc(-c3ccccc3Br)o1)C2=O`
40 µM (active)

###

- System: H4
- protocol-details: Luminescence Cell-Based Dose Response HTS to Identify Activators of 5'UTR Stem-Loop Driven Prion Protein mRNA Translation in H4 Neuroglioblastoma Cells. [Related pubchem assays: 1829 (Project Summary), 1814 (Primary HTS)]
- Format: functional
- condition: Homo sapiens
Activity calls are given as the source filed them.
Known EC50 of a selection of compounds

[
  {
    "compound": "CCc1cc2c(=O)c(-c3nc4ccccc4n3C)c(COCC(=O)O)oc2cc1O",
    "EC50": "> 120 µM (not active)"
  },
  {
    "compound": "CSc1nc2nccc(/C=C\\c3ccccc3)n2n1",
    "EC50": "> 120 µM (not active)"
  },
  {
    "compound": "O=[N+]([O-])c1ccccc1N/N=C1\\CCc2ccccc21",
    "EC50": "2.24 µM (active)"
  }
]

In one line, give reported EC50 of the entry `O=C(CNC(=O)c1cn2ccccc2n1)Nc1ccc(F)c(F)c1` .
> 120 µM (not active)

Output EC50 of Cc1ccc(C2NNC(=O)C2NC(=O)c2ccccc2)cc1 (stereo unspecified)
48.6 µM (active)

Query EC50 for `CCc1nnc(NC(=O)CSc2nc3c(cc2C#N)CCC3)s1`
> 120 µM (not active)

###

- assay-target: Large T antigen (Simian virus 40, UniProt P03070);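 further: Confirmatory-stage PubChem screen for compounds that inhibit SV40 T antigen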
- Sequence (P03070 whole entry): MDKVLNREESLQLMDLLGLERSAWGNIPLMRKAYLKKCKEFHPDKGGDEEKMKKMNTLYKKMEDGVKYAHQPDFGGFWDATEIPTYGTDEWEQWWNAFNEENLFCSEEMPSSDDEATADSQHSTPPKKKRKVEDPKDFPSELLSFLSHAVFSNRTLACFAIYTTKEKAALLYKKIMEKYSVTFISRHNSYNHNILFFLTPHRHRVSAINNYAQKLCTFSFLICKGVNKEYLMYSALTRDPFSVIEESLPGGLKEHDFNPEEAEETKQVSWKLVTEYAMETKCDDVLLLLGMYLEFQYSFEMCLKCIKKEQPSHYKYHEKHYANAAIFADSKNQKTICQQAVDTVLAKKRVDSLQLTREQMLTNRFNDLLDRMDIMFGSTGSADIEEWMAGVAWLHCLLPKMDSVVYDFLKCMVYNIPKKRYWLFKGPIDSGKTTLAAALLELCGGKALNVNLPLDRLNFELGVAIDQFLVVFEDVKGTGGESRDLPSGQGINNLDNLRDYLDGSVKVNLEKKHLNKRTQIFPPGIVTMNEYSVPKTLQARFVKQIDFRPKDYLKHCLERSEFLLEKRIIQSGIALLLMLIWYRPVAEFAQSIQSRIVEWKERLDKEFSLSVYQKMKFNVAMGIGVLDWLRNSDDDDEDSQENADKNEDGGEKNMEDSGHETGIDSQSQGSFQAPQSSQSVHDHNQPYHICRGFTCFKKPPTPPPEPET
- Type: functional, Betapolyomavirus macacae
The source made the active and inactive calls.
metric: IC50

[
  {
    "compound": "CCN1C(=O)C2(C(C(=O)c3cc4ccccc4o3)=C(O)C(=O)N2CCCN(C)C)c2ccccc21 (stereo not drawn)",
    "assay-value": "52.4 µM (active)"
  },
  {
    "compound": "COc1ccccc1N1CSC2=C(C#N)C(c3ccc(SC)cc3)CC(=O)N2C1 (stereo not drawn)",
    "assay-value": "28.4 µM (active)"
  }
]

Okay, now this compound:
Look up and report IC50, with Large T antigen (Simian virus 40, UniProt P03070) as system, for `Cc1n[nH]c(Nc2ccc(O)cc2)c1[N+](=O)[O-]`
7.06 µM (active)

###

- Tested on: INS1
- protocol-details: INS-1E survival protection against cytokine death – cell-based, luminescence, retest, dose response (AID 449756);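 further: cell death triggered by IL-1 beta plus TNF-alpha plus IFN-gamma mixture; protective hits raise ATP signal compared with cytokine alone wells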
- Assay type: functional
- condition: Rattus norvegicus
Active and inactive are the calls of the source.
metric: AC50

Consider the reported AC50 for these compounds:
[
  {
    "compound": "O=C(N/N=C/c1c(O)ccc2ccccc12)c1cccnc1",
    "AC50": "0.794 µM (active)"
  },
  {
    "compound": "O=C(N/N=C/c1cc(Cl)ccc1O)C(=O)Nc1ccccc1OC(F)(F)C(F)F",
    "AC50": "2.7 µM (active)"
  },
  {
    "compound": "COc1ccc(C2CC(c3ccc4ccccc4c3OC(C)=O)=NN2C(C)=O)cc1 (stereo unspecified)",
    "AC50": "3.3 µM (active)"
  }
]

Please report the measured AC50 for `FC(F)(F)c1cccc(-c2nc3nc(Cl)c(Cl)nc3[nH]2)c1`
3.23 µM (active)

Find the measured AC50 of `Cc1ccc(N=Nc2ccc(O)c3ncccc23)cc1` and report it.
1.3 µM (active)

Quickly give me recorded AC50 for `c1ccc(CCNc2nc(-c3ccccn3)nc3ccccc23)cc1`
1.63 µM (active)

###

- assay-target: Streptokinase A (Streptococcus pyogenes serotype M1, UniProt P10520)
- Sequence (P10520 whole entry): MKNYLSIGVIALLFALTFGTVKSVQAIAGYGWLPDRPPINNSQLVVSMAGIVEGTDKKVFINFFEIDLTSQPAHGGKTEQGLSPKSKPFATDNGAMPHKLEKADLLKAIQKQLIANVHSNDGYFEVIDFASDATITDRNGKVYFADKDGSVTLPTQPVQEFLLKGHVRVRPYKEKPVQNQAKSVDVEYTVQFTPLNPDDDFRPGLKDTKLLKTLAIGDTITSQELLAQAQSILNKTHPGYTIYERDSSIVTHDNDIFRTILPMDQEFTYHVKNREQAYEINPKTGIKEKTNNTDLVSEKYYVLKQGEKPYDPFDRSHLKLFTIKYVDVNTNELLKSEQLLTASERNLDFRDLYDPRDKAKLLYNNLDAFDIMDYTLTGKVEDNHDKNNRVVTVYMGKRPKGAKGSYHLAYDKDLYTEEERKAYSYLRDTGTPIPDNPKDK
- protocol-details: viability-normalized secreted streptokinase activity reduction – plasminogen activation absorbance, OD405, dose response (AID 1914);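 further: secreted streptokinase activity via plasminogen activation per viability signal from cell pellet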
- Assay type: functional, Streptococcus pyogenes M1 GAS
Activity calls are given as the source filed them.
metric: EC50

Worked examples, 3 compounds total:
[
  {
    "compound": "Cc1cc2n(n1)C(c1c[nH]c3ccccc13)Nc1ccccc1-2 (stereo unspecified)",
    "EC50": "18.1 µM (active)"
  },
  {
    "compound": "CCCCCCCCCCCCC/C=C/[C@@H](O)[C@@H](N)CO [SPHINGOSINE]",
    "EC50": "> 150 µM (not active)"
  },
  {
    "compound": "O=C(NCc1ccc2c(c1)OCO2)Nc1ccc(F)cc1",
    "EC50": "> 150 µM (not active)"
  }
]

Please report the measured EC50 for COCC1CCN(C(=O)CCc2nnc(C3(c4ccc(Cl)cc4)CCC3)o2)C1 (stereo unspecified) tested on Streptokinase A (Streptococcus pyogenes serotype M1, UniProt P10520).
> 150 µM (not active)

Give Streptokinase A (Streptococcus pyogenes serotype M1, UniProt P10520) EC50 for the following compound: `O=c1c2c([N+](=O)[O-])cc([N+](=O)[O-])cc2sn1Cc1ccccc1`
> 150 µM (not active)

Please report EC50 with Streptokinase A (Streptococcus pyogenes serotype M1, UniProt P10520) for item `O=C(Nc1ccc(Cl)c(Cl)c1)Nc1nccs1` .
> 150 µM (not active)

Provide Streptokinase A (Streptococcus pyogenes serotype M1, UniProt P10520) EC50 reading for `Oc1c(Cl)cc(Cl)c2c1NCCC2` .
> 150 µM (not active)

Please tell me the measured EC50 for `FC(F)(F)c1cccc(-c2nc3nc(Cl)c(Cl)nc3[nH]2)c1` ; system: Streptokinase A (Streptococcus pyogenes serotype M1, UniProt P10520).
> 150 µM (not active)
